Tested on: OVCAR-5 ovarian
Test Name: NCI-60 one-dose screen, 48 h (100 = growth as untreated, 0 = no growth, -100 = all killed)
Measurement Context: 10 µM unless noted
The panel holds about 83,000 compounds, 20% with a hit somewhere; the sample as a whole holds those more often.
Short version: growth at least 80% is Satisfied, less is Not satisfied.

Check the entry "COc1cc(-c2cc(-c3ccc(Nc4ncnc5cc(Cl)ccc45)cc3)nc(N3CCN(C)CC3)n2)cc(OC)c1OC" : does growth equal or exceed 80%? Satisfied

Check the entry "COc1ccc(OC)c(Nc2nnc(-c3ccc(Cl)cc3)o2)c1" : does growth equal or exceed 80%? Satisfied

Check the entry "COCCCOc1cc(C[C@@H](C[C@H](N)[C@@H](O)C[C@H](C(=O)NCC(C)(C)C(N)=O)C(C)C)C(C)C)ccc1OC" : does growth equal or exceed 80%? Satisfied

Check the entry "Cc1c2cc[nH]c(=O)c2c(C)c2c1[nH]c1ccc(OC(=O)c3ccccc3)cc12" : does growth equal or exceed 80%? Not satisfied

Check the entry "Nc1c(C(=O)O)cc(Cl)cc1[N+](=O)[O-]" : does growth equal or exceed 80%? Satisfied

Check the entry CC(/C=C1\SC(=S)N(CC(=O)NC(Cc2c[nH]c3ccccc23)C(=O)O)C1=O)=C\c1ccccc1 (stereo unspecified) : does growth equal or exceed 80%? Satisfied

Check the entry "Cc1ccc(C(=O)c2ccc(CC(=O)N/N=C/c3ccc(O)cc3O)n2C)cc1" : does growth equal or exceed 80%? Not satisfied

Check the entry "O=C(CCCCCCN1CC(=O)N2[C@@H](C3CCCCC3)c3[nH]c4ccccc4c3C[C@H]2C1=O)NO" : does growth equal or exceed 80%? Not satisfied

Check the entry CC1=NN(c2ccc(Cl)cc2)CC1(C)N=O (stereo unspecified) : does growth equal or exceed 80%? Satisfied

Check the entry O=C(NCc1ccc2c(c1)OCO2)NCC1CCCC(CNC(=O)NCc2ccc3c(c2)OCO3)C1 (stereo unspecified) : does growth equal or exceed 80%? Satisfied

Check the entry "CCN(CC)CCCNCc1cc(-c2ccccc2)nc2cc(Cl)ccc12" : does growth equal or exceed 80%? Satisfied

Check the entry COc1cc(OC)cc(C2C(C#N)=C(N)Oc3c2ccc2ccc(O)cc32)c1 (stereo unspecified) : does growth equal or exceed 80%? Not satisfied

Check the entry "S=c1ssnc1-c1cccs1" : does growth equal or exceed 80%? Satisfied

Check the entry "O=C(CSc1nc2ccc([N+](=O)[O-])cc2[nH]1)Nc1ccc(Br)cc1" : does growth equal or exceed 80%? Satisfied

Check the entry "CC/C=C1/C(=O)C=C[C@@H]1C/C=C\CCCC(=O)OC" : does growth equal or exceed 80%? Satisfied

Check the entry "COc1cc(/C=C\c2cc(/C=C\c3ccc(O)c(OC)c3)n(C(=O)CNc3ccc(Cl)cc3)n2)ccc1O" : does growth equal or exceed 80%? Satisfied

Check the entry CCN1C(=O)N(CC)C2C1NN=c1s/c(=C3\C(=O)N(CCc4ccccc4)c4ccccc43)c(=O)n12 (stereo unspecified) : does growth equal or exceed 80%? Not satisfied

Check the entry O=C(CN1C(=O)NC2NC(=O)NC21)N/N=C/c1ccc(Cl)cc1Cl (stereo unspecified) : does growth equal or exceed 80%? Satisfied

Check the entry "O=C(/C=C\c1ccco1)/C=C/c1ccco1" : does growth equal or exceed 80%? Satisfied

Check the entry "COCC[C@H]1CCC/C=C/[C@@H]2C[C@H](O)C[C@H]2[C@H](O)/C=C/C(=O)O1" : does growth equal or exceed 80%? Not satisfied

Check the entry CCN1C(=S)N(CC)C2C1NC(=S)N2/N=C/C=C/c1ccccc1OC (stereo unspecified) : does growth equal or exceed 80%? Not satisfied

Check the entry "N#Cc1nc(-c2ccc(F)cc2)oc1S(=O)(=O)N1CCN(c2ccc(F)cc2)CC1" : does growth equal or exceed 80%? Satisfied

Check the entry "COc1ccc(Cc2nnc(Nc3nc4ccccc4s3)s2)cc1" : does growth equal or exceed 80%? Satisfied

Check the entry COc1ccc(C2=NN(C(=O)c3cc(OC)c(OC)c(OC)c3)C(c3ccc(N(C)C)cc3)C2)cc1 (stereo unspecified) : does growth equal or exceed 80%? Not satisfied

Check the entry "COC(=O)C1=Nc2ccc(F)cc2/C1=C\c1sc(Nc2ccc(O)cc2)nc1O" : does growth equal or exceed 80%? Satisfied

Check the entry "COc1ccc(-c2cn(-c3ccc(Cl)cc3)c(SCC(=O)c3ccc([N+](=O)[O-])cc3)n2)cc1" : does growth equal or exceed 80%? Satisfied

Check the entry "Cn1c(O)c(C(/C=C/c2ccccc2)=Nc2ccccc2N)c(=O)n(C)c1=O" : does growth equal or exceed 80%? Satisfied

Check the entry CCN1C(=O)N(CC)C2C1NN=C1SCC(=O)N12 (stereo unspecified) : does growth equal or exceed 80%? Satisfied

Check the entry "Cc1cscc(C)c1=S" : does growth equal or exceed 80%? Not satisfied

Check the entry "CCc1ccc(CCC(=O)Nc2ncc(Cc3ccc(Cl)cc3)s2)o1" : does growth equal or exceed 80%? Not satisfied

Check the entry "CCOC(=O)Nc1nc2ccc(SCC(C)C)cc2s1" : does growth equal or exceed 80%? Not satisfied

Check the entry CN1C(=O)N(C)C2C1NC(=S)N2/N=C/C=C/c1ccccc1[N+](=O)[O-] (stereo unspecified) : does growth equal or exceed 80%? Not satisfied

Check the entry "COc1ncc2cc1NS(=O)(=O)c1cccc(c1)C(=O)NCC1=CC=C(S1)c1ncnc3c1SC2=C3C" : does growth equal or exceed 80%? Not satisfied

Check the entry "O=C1NC(=C(Cl)Cl)/C(=N/S(=O)(=O)NCCc2c[nH]c3ccccc23)N1" : does growth equal or exceed 80%? Not satisfied

Check the entry COc1ccc(C(O)c2cc3c(N)c(C(=O)Nc4cccc(Cl)c4)sc3nc2C)cc1 (stereo unspecified) : does growth equal or exceed 80%? Not satisfied

Check the entry "Fc1ccc(CNc2c3ccccc3nc3ccccc23)cc1" : does growth equal or exceed 80%? Not satisfied

Check the entry CCC(C)Nc1ccc(NC(C)CC)cc1 (stereo unspecified) : does growth equal or exceed 80%? Satisfied

Check the entry "CCCCCCCCn1ccc2cc(NC(=O)Cn3cc(CN4CCN(CC)CC4)nn3)ccc21" : does growth equal or exceed 80%? Satisfied

Check the entry "COC(=O)c1ccc2c(c1)c1c(C)c3ccncc3c(C)c1n2C" : does growth equal or exceed 80%? Not satisfied

Check the entry "Cc1c(Cl)cccc1C(=O)Nc1nc2c(s1)CN(C(=O)Nc1cccc(C(F)(F)F)c1)CC2" : does growth equal or exceed 80%? Not satisfied
